All figures here come from patent US7732468B2.

tested on: human leukemia cell line K562; assay: Inhibition of cell proliferation (GI50) in K562 cells; assay type: cell-based; conditions: 48 h incubation
Listing: GI50 of selected molecules
Answer format: value, then unit.

Below, each entry is followed by its recorded GI50 result.
CCN(CC)c1ccc(-c2nn3c(-c4ccccc4C)nnc3s2)cc1 [Entry F1]	303 nM
CCOc1ccc(-c2nn3c(-c4ccccc4C)nnc3s2)cc1 [P]	3270 nM
CN(C)c1ccc(-c2nn3c(-c4ccccc4Cl)nnc3s2)cc1 [Entry E1]	332 nM
COc1ccc(-c2nn3c(-c4ccccc4C)nnc3s2)cc1OC [E]	2490 nM
Cc1ccccc1-c1nnc2sc(-c3ccc(N(C)C)cc3)nn12 [Entry I1]	350 nM
CCN(CC)c1ccc(-c2nn3c(-c4ccccc4Cl)nnc3s2)cc1 [Entry G1]	155 nM
COc1ccc(-c2nn3c(-c4cc(OC)c(OC)c(OC)c4)nnc3s2)cc1OC [V]	1600 nM
COc1cccc(-c2nnc3sc(-c4ccc(N(C)C)cc4)nn23)c1 [Entry D1]	1020 nM

Pending molecule:
// query Query for human leukemia cell line K562: what GI50 does the record show for COc1ccc(-c2nn3c(-c4cc(OC)c(OC)c(OC)c4)nnc3s2)cc1 [Entry S] ?
// result 1460 nM
